Molecular target: MASP-2 CCP2-SP (Homo sapiens (Human), UniProt O00187)
Sequence (O00187 445-686): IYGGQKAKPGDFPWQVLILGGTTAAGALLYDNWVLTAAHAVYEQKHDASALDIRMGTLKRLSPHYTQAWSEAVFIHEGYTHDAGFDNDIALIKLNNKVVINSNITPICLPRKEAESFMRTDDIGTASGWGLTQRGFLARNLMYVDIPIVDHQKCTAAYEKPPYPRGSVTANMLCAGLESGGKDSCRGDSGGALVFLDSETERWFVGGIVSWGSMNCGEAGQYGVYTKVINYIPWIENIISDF
Sequence (O00187 364-432 partner): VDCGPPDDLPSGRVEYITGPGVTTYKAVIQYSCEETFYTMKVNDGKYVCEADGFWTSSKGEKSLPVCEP
Assay: MASP-2 co-crystallization, X-ray crystallography and structure analysis (H-bonds, van der Waals contacts);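 further: distance from averaged pharmacophore element to bound ligand; missing value means element absent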
Conditions: Table A4-1; element CA1
Where a name gives a salt, the structure may show the parent alone.
Note to self: values exactly at 0.5 are 1. So Ligand-pharmacophore element distance, pharmacophore element CA1 at or above 0.5 is 1, below is -1.

Some solved entries appear below for comparison.
>  <Molecule>
Cc1nc(N)ccc1CNC(=O)[C@H](C)NC(=O)[C@H]1C[C@H](Cc2cc(Cl)cc(Cl)c2)CN1 [compound 1435, Dihydrochloride]

>  <Group>
1

$$$$
>  <Molecule>
C[C@H](NC(=O)[C@H]1C[C@@H](c2ccccc2)CCN1)C(=O)NCc1cc(Cl)ccc1O.Cl [1078_3]

>  <Group>
1

$$$$
>  <Molecule>
C[C@H](NC(=O)[C@H](N)CCc1cc(Cl)cc(Cl)c1)C(=O)NCc1ccc(C(=N)N)cc1

>  <Group>
-1

$$$$
>  <Molecule>
C[C@H](NC(=O)[C@@H](CCc1ccccc1)NCCCc1ccc(O)cc1)C(=O)NCc1ccc(C(=N)N)cc1.Cl.Cl

>  <Group>
-1

$$$$

Entry C[C@H](NC(=O)[C@H]1C[C@@H](c2ccccc2)CN1)C(=O)NCc1ccc2c(N)nccc2c1.Cl.Cl [1089_B] : is its Ligand-pharmacophore element distance, pharmacophore element CA1 no less than 0.5?
1

Entry C[C@H](NC(=O)[C@H]1C[C@@H](c2ccccc2)CCN1)C(=O)NCc1cc(Cl)ccc1O.Cl [1078_14] : is its Ligand-pharmacophore element distance, pharmacophore element CA1 no less than 0.5?
1
